- PROCEDURE_TEXT: Dark toxicity in human ECA109 cells assessed as decrease in cell viability after 24 hrs by MTT assay
- Assay type: cell-based, ECa-109
EXPERIMENTAL_READOUT: IC50 at 24 h (µM)
Record the value in µM, omitting the unit from your answer.

>>> test_result("COc1ccc(-c2c3nc(cc4ccc([nH]4)c(-c4ccc(OC)c(OCC(=O)O)c4)c4nc(cc5ccc2[nH]5)CC4)C=C3)cc1OCC(=O)O")
111

Entry "COc1ccc(-c2c3nc(cc4ccc([nH]4)c(-c4ccc(OC)c(OCC(=O)O)c4)c4nc(cc5ccc2[nH]5)C=C4)C=C3)cc1OCC(=O)O" , IC50 at 24 h reported as 158

---

- PROCEDURE_TEXT: Dark toxicity in human ECA109 cells assessed as decrease in cell viability after 24 hrs by MTT assay
- Format: cell-based, ECa-109
EXPERIMENTAL_READOUT: IC50 at 24 h

// below: answered compounds
>>> test_result("O=C(O)COc1cccc(-c2c3nc(cc4ccc([nH]4)c(-c4cccc(OCC(=O)O)c4)c4nc(cc5ccc2[nH]5)CC4)C=C3)c1")
"91.8 µM"
>>> test_result("O=C(O)CCCOc1cccc(-c2c3nc(cc4ccc([nH]4)c(-c4cccc(OCCCC(=O)O)c4)c4nc(cc5ccc2[nH]5)CC4)CC3)c1")
"> 500 µM"
>>> test_result("O=C(O)COc1cccc(-c2c3nc(cc4ccc([nH]4)c(-c4cccc(OCC(=O)O)c4)c4nc(cc5ccc2[nH]5)C=C4)C=C3)c1")
"74.6 µM"

Lab note: next compound to report on.
The recorded IC50 at 24 h for entry "COc1ccc(-c2c3nc(cc4ccc([nH]4)c(-c4ccc(OC)c(OCC(=O)O)c4)c4nc(cc5ccc2[nH]5)CC4)CC3)cc1OCC(=O)O" equals 187 µM

---

- PROCEDURE_TEXT: Dark toxicity in human ECA109 cells assessed as cell survival at 20 uM after 24 hrs by MTT assay relative to control
- Type: cell-based, ECa-109
- EXPERIMENTAL_CONDITIONS: read-out: Survival
EXPERIMENTAL_READOUT: viability at 24 h, 20 µM
Answer shape: numeric part, then the unit.

>>> test_result("O=C(O)COc1cccc(-c2c3nc(cc4ccc([nH]4)c(-c4cccc(OCC(=O)O)c4)c4nc(cc5ccc2[nH]5)C=C4)C=C3)c1")
"80%"

For this molecule ( "COc1ccc(-c2c3nc(cc4ccc([nH]4)c(-c4ccc(OC)c(OCCCC(=O)O)c4)c4nc(cc5ccc2[nH]5)C=C4)C=C3)cc1OCCCC(=O)O" ), measured viability at 24 h, 20 µM is 80%

Sample "O=C(O)CCCOc1cccc(-c2c3nc(cc4ccc([nH]4)c(-c4cccc(OCCCC(=O)O)c4)c4nc(cc5ccc2[nH]5)CC4)CC3)c1" ; viability at 24 h, 20 µM observed: 80%

Input "COc1ccc(-c2c3nc(cc4ccc([nH]4)c(-c4ccc(OC)c(OCCCC(=O)O)c4)c4nc(cc5ccc2[nH]5)CC4)CC3)cc1OCCCC(=O)O" . Output viability at 24 h, 20 µM: 80%

Summary for this molecule, "O=C(O)COc1cccc(-c2c3nc(cc4ccc([nH]4)c(-c4cccc(OCC(=O)O)c4)c4nc(cc5ccc2[nH]5)CC4)CC3)c1" : viability at 24 h, 20 µM is 80%

---

Listed below: pIC50 values for each entry.
- Tested on: ECa-109 cell line
- PROCEDURE_TEXT: Phototoxicity against human ECA109 cells assessed as decrease in cell viability after 24 hrs at 16 J/cm2 irradiation by MTT assay
- Assay type: functional, cell-based
- EXPERIMENTAL_CONDITIONS: ECa-109, light or radiation study
Hey, just a heads up that pIC50 is the negative log base 10 of the concentration in molar.

>>> test_result("COc1ccc(-c2c3nc(cc4ccc([nH]4)c(-c4ccc(OC)c(OCCCC(=O)O)c4)c4nc(cc5ccc2[nH]5)C=C4)C=C3)cc1OCCCC(=O)O")
4.99
>>> test_result("O=C(O)COc1cccc(-c2c3nc(cc4ccc([nH]4)c(-c4cccc(OCC(=O)O)c4)c4nc(cc5ccc2[nH]5)C=C4)C=C3)c1")
5.03

Query "O=C(O)COc1cccc(-c2c3nc(cc4ccc([nH]4)c(-c4cccc(OCC(=O)O)c4)c4nc(cc5ccc2[nH]5)CC4)C=C3)c1" yields pIC50 of 5.48

Sure, the documented pIC50 for "COc1ccc(-c2c3nc(cc4ccc([nH]4)c(-c4ccc(OC)c(OCC(=O)O)c4)c4nc(cc5ccc2[nH]5)C=C4)C=C3)cc1OCC(=O)O" is 4.90

---

- PROCEDURE_TEXT: Dark toxicity in human ECA109 cells assessed as decrease in cell viability after 24 hrs by MTT assay
- Assay type: cell-based, ECa-109
EXPERIMENTAL_READOUT: IC50 at 24 h (µM)
Enter your answer as a number in µM; do not include the unit.

>>> test_result("O=C(O)CCCOc1cccc(-c2c3nc(cc4ccc([nH]4)c(-c4cccc(OCCCC(=O)O)c4)c4nc(cc5ccc2[nH]5)C=C4)C=C3)c1")
271
>>> test_result("O=C(O)COc1cccc(-c2c3nc(cc4ccc([nH]4)c(-c4cccc(OCC(=O)O)c4)c4nc(cc5ccc2[nH]5)CC4)CC3)c1")
162

Let's switch to this molecule now.
# IC50 at 24 h (molecule: "COc1ccc(-c2c3nc(cc4ccc([nH]4)c(-c4ccc(OC)c(OCCCC(=O)O)c4)c4nc(cc5ccc2[nH]5)C=C4)C=C3)cc1OCCCC(=O)O" ) is 183

---

Each entry below lists one item and its recorded IC50 value.
- Test system: ECa-109 cell line
- PROCEDURE_TEXT: Phototoxicity against human ECA109 cells assessed as decrease in cell viability after 24 hrs at 16 J/cm2 irradiation by MTT assay
- Type: functional, cell-based
- EXPERIMENTAL_CONDITIONS: ECa-109, light or radiation study

Example molecules with recorded IC50:
>>> test_result("COc1ccc(-c2c3nc(cc4ccc([nH]4)c(-c4ccc(OC)c(OCCCC(=O)O)c4)c4nc(cc5ccc2[nH]5)CC4)CC3)cc1OCCCC(=O)O")
"2470 nM"
>>> test_result("COc1ccc(-c2c3nc(cc4ccc([nH]4)c(-c4ccc(OC)c(OCCCC(=O)O)c4)c4nc(cc5ccc2[nH]5)CC4)C=C3)cc1OCCCC(=O)O")
"2830 nM"
>>> test_result("COc1ccc(-c2c3nc(cc4ccc([nH]4)c(-c4ccc(OC)c(OCC(=O)O)c4)c4nc(cc5ccc2[nH]5)CC4)CC3)cc1OCC(=O)O")
"3090 nM"
>>> test_result("O=C(O)COc1cccc(-c2c3nc(cc4ccc([nH]4)c(-c4cccc(OCC(=O)O)c4)c4nc(cc5ccc2[nH]5)CC4)CC3)c1")
"2620 nM"
>>> test_result("O=C(O)CCCOc1cccc(-c2c3nc(cc4ccc([nH]4)c(-c4cccc(OCCCC(=O)O)c4)c4nc(cc5ccc2[nH]5)CC4)CC3)c1")
"2430 nM"
>>> test_result("O=C(O)CCCOc1cccc(-c2c3nc(cc4ccc([nH]4)c(-c4cccc(OCCCC(=O)O)c4)c4nc(cc5ccc2[nH]5)C=C4)C=C3)c1")
"8190 nM"
>>> test_result("O=C(O)CCCOc1cccc(-c2c3nc(cc4ccc([nH]4)c(-c4cccc(OCCCC(=O)O)c4)c4nc(cc5ccc2[nH]5)CC4)C=C3)c1")
"2650 nM"

# next molecule below
Given item "COc1ccc(-c2c3nc(cc4ccc([nH]4)c(-c4ccc(OC)c(OCC(=O)O)c4)c4nc(cc5ccc2[nH]5)CC4)C=C3)cc1OCC(=O)O" , the value recorded as its IC50 is 3140 nM

From: ChEMBL document CHEMBL4382209
